Where these numbers come from: patent US8916565B2

testedSystem: human NaV subtype, like NaV 1.7 (Homo sapiens, UniProt Q15858)
Sequence (Q15858 whole entry): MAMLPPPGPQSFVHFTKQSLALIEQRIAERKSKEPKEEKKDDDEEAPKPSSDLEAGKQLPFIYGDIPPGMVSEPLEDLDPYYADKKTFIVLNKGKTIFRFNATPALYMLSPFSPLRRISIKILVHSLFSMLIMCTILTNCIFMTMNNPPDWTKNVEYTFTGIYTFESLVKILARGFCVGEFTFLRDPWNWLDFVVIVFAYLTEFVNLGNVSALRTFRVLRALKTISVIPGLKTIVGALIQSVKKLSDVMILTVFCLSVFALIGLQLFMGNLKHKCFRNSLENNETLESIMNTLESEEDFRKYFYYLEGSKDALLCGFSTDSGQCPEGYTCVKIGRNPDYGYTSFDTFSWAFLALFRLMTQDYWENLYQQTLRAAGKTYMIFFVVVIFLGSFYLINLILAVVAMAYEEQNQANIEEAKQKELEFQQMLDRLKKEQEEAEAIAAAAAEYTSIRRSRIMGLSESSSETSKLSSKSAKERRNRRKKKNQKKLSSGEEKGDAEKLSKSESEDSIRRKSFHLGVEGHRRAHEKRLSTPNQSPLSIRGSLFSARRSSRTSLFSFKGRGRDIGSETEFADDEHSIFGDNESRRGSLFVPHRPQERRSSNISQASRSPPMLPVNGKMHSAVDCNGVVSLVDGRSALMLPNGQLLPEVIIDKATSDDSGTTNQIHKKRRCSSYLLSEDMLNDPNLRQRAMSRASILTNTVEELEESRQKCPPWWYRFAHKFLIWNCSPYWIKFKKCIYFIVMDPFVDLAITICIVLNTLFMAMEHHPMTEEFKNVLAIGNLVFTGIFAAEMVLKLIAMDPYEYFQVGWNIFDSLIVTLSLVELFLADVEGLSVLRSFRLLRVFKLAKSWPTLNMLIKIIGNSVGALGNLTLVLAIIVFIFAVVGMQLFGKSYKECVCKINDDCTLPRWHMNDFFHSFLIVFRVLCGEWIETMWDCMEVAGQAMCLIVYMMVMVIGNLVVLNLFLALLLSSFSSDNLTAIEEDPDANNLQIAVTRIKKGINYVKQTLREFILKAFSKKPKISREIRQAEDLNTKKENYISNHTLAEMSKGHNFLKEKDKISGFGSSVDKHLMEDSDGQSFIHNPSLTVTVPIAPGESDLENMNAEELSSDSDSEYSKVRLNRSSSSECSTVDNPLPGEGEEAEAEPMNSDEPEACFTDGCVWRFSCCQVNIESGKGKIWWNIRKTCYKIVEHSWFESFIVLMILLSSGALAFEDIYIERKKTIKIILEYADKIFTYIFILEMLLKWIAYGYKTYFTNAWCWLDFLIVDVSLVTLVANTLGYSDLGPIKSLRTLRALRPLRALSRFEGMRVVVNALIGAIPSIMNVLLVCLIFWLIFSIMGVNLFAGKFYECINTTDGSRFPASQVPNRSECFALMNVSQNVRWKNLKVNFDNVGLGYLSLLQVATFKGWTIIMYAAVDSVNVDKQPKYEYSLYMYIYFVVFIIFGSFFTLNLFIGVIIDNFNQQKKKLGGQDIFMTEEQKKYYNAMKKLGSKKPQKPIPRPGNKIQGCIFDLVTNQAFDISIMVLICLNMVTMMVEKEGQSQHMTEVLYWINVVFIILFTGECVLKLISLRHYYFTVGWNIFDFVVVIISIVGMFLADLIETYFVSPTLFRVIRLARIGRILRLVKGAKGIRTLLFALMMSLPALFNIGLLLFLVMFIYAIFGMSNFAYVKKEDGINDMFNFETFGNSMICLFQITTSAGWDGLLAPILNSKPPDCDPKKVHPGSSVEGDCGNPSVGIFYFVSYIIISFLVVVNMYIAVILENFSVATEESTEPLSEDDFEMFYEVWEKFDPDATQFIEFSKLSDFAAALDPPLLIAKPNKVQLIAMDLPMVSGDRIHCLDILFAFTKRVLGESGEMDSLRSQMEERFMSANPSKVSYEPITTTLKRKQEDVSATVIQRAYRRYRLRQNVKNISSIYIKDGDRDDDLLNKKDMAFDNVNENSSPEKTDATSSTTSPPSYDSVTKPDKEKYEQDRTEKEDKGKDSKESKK
protocol: E-VIPR optical membrane potential assay with electrical stimulation
statedConditions: active against one or more sodium channels; Table 3 does not name the assay or NaV subtype; read-out: Binned Activity Data (IC50)
The entries below are paired with their reported IC50.

Please review the following examples before continuing.
1. Cc1cc(C(=O)N2CCC3(CC2)c2ccc(C(=O)C(F)(F)F)n2CCN3C)ccc1C(F)(F)F ... ≤ 2 µM
2. COc1ccc(C(=O)N2CCC3(CC2)c2ccc(C(=O)C(F)(F)F)n2CCN3C)cc1C ... ≤ 2 µM
3. CC(C)CCOc1ccc(C(=O)N2CCC3(CC2)NC(C)(C)Cn2cc(F)c(F)c23)cc1 ... > 5 µM
4. CC[C@@H](C)Oc1ccc(C(=O)N2CCC3(CC2)c2ccc(C(F)(F)F)n2CCN3C)cc1OC ... ≤ 2 µM
5. COc1cc(C(=O)N2CCC3(CC2)c2cc(C(F)(F)F)c(C(F)(F)F)n2CCN3C)ccc1OC(C)C ... ≤ 2 µM

Ask: Which IC50 value is on record for "CCc1ccc(C(=O)N2CCC3(CC2)c2c(F)cc(C(F)(F)F)n2CCN3C)cc1OC" ?
Reply: ≤ 2 µM

Ask: Which IC50 value is on record for "CN1CCn2c(Cl)ccc2C12CCN(C(=O)c1ccc(COc3ccccc3)cc1)CC2" ?
Reply: 2 to 5 µM

Ask: Which IC50 value is on record for "CN1CCn2c(Cl)ccc2C12CCN(C(=O)c1ccc(OCC(C)(C)C)cc1)CC2" ?
Reply: ≤ 2 µM

---

testedSystem: human NaV subtype, like NaV 1.7 (Homo sapiens)
protocol: E-VIPR optical membrane potential assay with electrical stimulation
statedConditions: active against one or more sodium channels; Table 3 does not name the assay or NaV subtype; read-out: Binned Activity Data (IC50)
The entries below are paired with their reported IC50.

Please review the following examples before continuing.
1) CCOc1ccc(C(=O)N2CCC3(CC2)NC(C)(C)Cn2c(C(=O)C(F)(F)F)ccc23)cc1Cl ... ≤ 2000 nM
2) CC1(C)Cn2c(C(=O)C(F)(F)F)ccc2C2(CCN(C(=O)c3ccc(OCC4CC4)c(F)c3)CC2)N1 ... ≤ 2000 nM
3) COC(=O)N1CCn2c(C(F)(F)F)ccc2C12CCN(C(=O)c1ccc(OC(C)C)c(OC)c1)CC2 ... ≤ 2000 nM
4) CCc1ccc(C(=O)N2CCC3(CC2)c2ccc(C(C)=O)n2CCN3C)cc1OC ... 2000 to 5000 nM
5) CC[C@@H](C)Oc1ccc(C(=O)N2CCC3(CC2)NCCn2c(C(F)(F)F)ccc23)cc1OC ... ≤ 2000 nM
6) CC(=O)c1ccc2n1C(C)(C)CN(C)C21CCN(C(=O)c2ccc(C(C)(C)O)c(F)c2)CC1 ... > 5000 nM

// switching to the query compound
Ask: Which IC50 value is on record for "CN1CCn2c(C(=O)C(F)(F)F)ccc2C12CCN(C(=O)c1ccc(C3CC3)cc1)CC2" ?
Reply: ≤ 2000 nM

---

testedSystem: human NaV subtype, like NaV 1.7 (Homo sapiens)
protocol: E-VIPR optical membrane potential assay with electrical stimulation
statedConditions: active against one or more sodium channels; Table 3 does not name the assay or NaV subtype; read-out: Binned Activity Data (IC50)
pIC50: −log10 of the molar value.
The entries below are paired with their reported pIC50.

Please review the following examples before continuing.
1. COc1cc(C(=O)N2CCC3(CC2)c2ccc(C(F)(F)F)n2C[C@H](C)N3C)ccc1OC(C)C [Compound 29] ... ≥ 5.70
2. Cc1nc(C(=O)N2CCC3(CC2)c2ccc(Cl)n2CCN3C)ccc1OC(C)C [Compound 648] ... ≥ 5.70
3. Cc1cc(C(=O)N2CCC3(CC2)c2c(F)cc(C(F)(F)F)n2CCN3C)ccc1C1(O)CCC1 [Compound 384] ... ≥ 5.70
4. CC(=O)c1ccc2n1CCN(C)C21CCN(C(=O)c2ccc(OC(F)(F)F)cc2)CC1 [Compound 577] ... < 5.30
5. Cc1cc(C(=O)N2CCC3(CC2)c2ccc(C(=O)C(F)(F)F)n2CCN3C)ccc1F [Compound 376] ... 5.30 to 5.70
6. CN1CCn2c(C(=O)C(F)(F)F)ccc2C12CCN(C(=O)c1ccc(OCC(F)(F)F)cc1)CC2 [Compound 175] ... ≥ 5.70
7. CC(C)c1ccc(C(=O)N2CCC3(CC2)c2ccc(C(=O)C(F)(F)F)n2CCN3C)cc1 [Compound 290] ... ≥ 5.70

// switching to the query compound
Ask: Lab note: need pIC50 with human NaV subtype, like NaV 1.7 (Homo sapiens) for entry COc1cc(C(=O)N2CCC3(CC2)c2ccc(C(F)(F)F)n2CCN3C(=O)N(C)C)ccc1OC(C)C [Compound 227] , please look it up.
Reply: < 5.30

---

The entries below are paired with their reported IC50.
testedSystem: UniProt Q15858
protocol: E-VIPR optical membrane potential assay with electrical stimulation
statedConditions: active against one or more sodium channels; Table 3 does not name the assay or NaV subtype; read-out: Binned Activity Data (IC50)

Please review the following examples before continuing.
1) CC(=O)c1ccc2n1CCN(C)C21CCN(C(=O)c2ccc(OC(C)C)cc2F)CC1 [Compound 125] ... 2000 to 5000 nM
2) Cc1cc(N2CCCC2)n2ncc(C(=O)N3CCC4(CC3)c3ccc(C(F)(F)F)n3CCN4C)c2n1 [Compound 378] ... ≤ 2000 nM
3) CCCN(CCC)S(=O)(=O)c1ccc(C(=O)N2CCC3(CC2)c2ccc(Cl)n2CCN3C)cc1 [Compound 479] ... 2000 to 5000 nM

Ask: Which IC50 value is on record for COc1ccc(C(=O)N2CCC3(CC2)c2ccc(C(=O)C(F)(F)F)n2C[C@@H](C)N3C)cc1C [Compound 432] ?
Reply: 2000 to 5000 nM

Ask: Which IC50 value is on record for COc1cc(C(=O)N2CCC3(CC2)NC(C)(C)Cn2c(C(C)=O)ccc23)ccc1C(C)(C)C [Compound 353] ?
Reply: ≤ 2000 nM

Ask: Which IC50 value is on record for COc1cc(C(=O)N2CCC3(CC2)c2ccc(Cl)n2CCN3C)ccc1OC(C)C [Compound 234] ?
Reply: > 5000 nM

Ask: Which IC50 value is on record for CCCCOc1cc(C(=O)N2CCC3(CC2)c2ccc(C(=O)C(F)(F)F)n2CCN3C)ccc1OC [Compound 115] ?
Reply: ≤ 2000 nM

Ask: Which IC50 value is on record for COc1cc(C(=O)N2CCC3(CC2)N[C@@H](C)Cn2c(C(F)(F)F)ccc23)ccc1OC(C)C [Compound 306] ?
Reply: 2000 to 5000 nM

Ask: Which IC50 value is on record for CCOc1ccc(C(=O)N2CCC3(CC2)c2c(Cl)cc(C(F)(F)F)n2CCN3C)cc1C [Compound 420] ?
Reply: ≤ 2000 nM

Ask: Which IC50 value is on record for COc1cc(C(=O)N2CCC3(CC2)c2ccc(C(F)(F)C(F)(F)F)n2CCN3C)ccc1OC(C)(C)C [Compound 299] ?
Reply: ≤ 2000 nM

Ask: Which IC50 value is on record for CC(=O)c1ccc2n1CC(C)(C)NC21CCN(C(=O)c2ccc(OC(C)C)cc2F)CC1 [Compound 286] ?
Reply: ≤ 2000 nM

Ask: Which IC50 value is on record for Cc1cc(C(=O)N2CCC3(CC2)c2c(Cl)cc(C(F)(F)F)n2CCN3C)ccc1C(C)(C)O [Compound 466] ?
Reply: ≤ 2000 nM

Ask: Which IC50 value is on record for COc1cc(C(=O)N2CCC3(CC2)c2ccc(C(C)=O)n2CCN3C)ccc1OCCOC(F)(F)F [Compound 541] ?
Reply: ≤ 2000 nM

Ask: Which IC50 value is on record for CCOc1cc(C(=O)N2CCC3(CC2)c2ccc(C(F)(F)F)n2CCN3C)ccc1CO [Compound 579] ?
Reply: ≤ 2000 nM

Ask: Which IC50 value is on record for CC(C)Oc1ccc(C(=O)N2CCC3(CC2)c2ccc(C(=O)C(F)(F)F)n2CCN3C)cc1CO [Compound 160] ?
Reply: ≤ 2000 nM

Ask: Which IC50 value is on record for COc1cc(C(=O)N2CCC3(CC2)c2ccc(C(F)(F)F)n2CCN3C)ccc1OCCO [Compound 440] ?
Reply: > 5000 nM

---

testedSystem: human NaV subtype, like NaV 1.7 (Homo sapiens)
protocol: E-VIPR optical membrane potential assay with electrical stimulation
statedConditions: active against one or more sodium channels; Table 3 does not name the assay or NaV subtype; read-out: Binned Activity Data (IC50)
pIC50: −log10 of the molar value.
The entries below are paired with their reported pIC50.

1. CC(C)Oc1ccc(C(=O)N2CCC3(CC2)c2ccc(C(=O)C(C)(C)C)n2CCN3C)c(F)c1 [Compound 91] ... ≥ 5.70
2. Cc1cc(C(=O)N2CCC3(CC2)c2ccc(C(=O)c4ccccc4)n2CCN3C)ccc1O [Compound 632] ... ≥ 5.70
3. CN1CCn2c(C(=O)C(F)(F)F)ccc2C12CCN(C(=O)c1ccc(O)c(C(F)(F)F)c1)CC2 [Compound 733] ... ≥ 5.70
4. CN1CCn2c(C(F)(F)F)ccc2C12CCN(C(=O)c1cccc3cccnc13)CC2 [Compound 281] ... ≥ 5.70
5. COc1cc(C(=O)N2CCC3(CC2)c2c(F)cc(C(F)(F)F)n2CCN3C)ccc1C1(O)CCC1 [Compound 410] ... ≥ 5.70

Ask: Which pIC50 value is on record for C[C@H]1Cn2c(C(=O)C(F)(F)F)ccc2C2(CCN(C(=O)c3ccc(S(=O)(=O)NC4CC4)cc3)CC2)N1C [Compound 669] ?
Reply: ≥ 5.70

Ask: Which pIC50 value is on record for CN1CCn2c(C(O)C(F)(F)F)ccc2C12CCN(C(=O)c1ccc(C3CCCCC3)cc1)CC2 (stereo not drawn) [Compound 631] ?
Reply: < 5.30
